- assay_overview: Pharmacokinetic test in rats
- Type: in vivo, rat
- measurement_setup: rat, iv; male SD rats, i.v. 1 mg/kg, plasma
experimental_endpoint: AUC0-t (ng·h/mL)
Unit ng·h/mL implied. Number only.

Kindly note the recorded AUC0-t for CCC/C(O)=C1/C(=O)Oc2ccccc21 [Compound (I)] , which is 52500

----------
The following compounds are listed with their measured concentration at 24 h values.
- assay_overview: Distribution in brain tissues of rats (plasma and brain concentration)
- Format: in vivo
- measurement_setup: rat, plasma, po; male SD rats, 20 mg/kg p.o., sampling time 24 h; read-out: Measured value in plasma Concentration

CCCCC1OC(=O)c2ccccc21 (centres unmarked) [NBP, 3-n-butylphthalide] | 1.7 ng/mL

API: the following record is the query input.
Kindly note the recorded concentration at 24 h for CCC/C(O)=C1/C(=O)Oc2ccccc21 , which is 23500 ng/mL
